Each recorded value in this set is attributed to paper PMC3005981.

- Tested on: CYP2D6
- testSummary: Inhibition of methadone N-demethylation
- conditionSummary: human, microsomes, Inhibition of (R)- and (S)-EDDP formation, HLM with high CYP2D6 activity; 10 µM
parameterMeasured: inhibition at 30 min, 10 µM

-- ask Given C=C[C@H]1C[N@@]2CC[C@H]1C[C@@H]2[C@@H](O)c1ccnc2ccc(OC)cc12 [Quinidine, quinidine] , state its recorded inhibition at 30 min, 10 µM.
-- reply < 30%

###

- experimentalTarget: CYP3A4 (Homo sapiens, UniProt P08684)
- Sequence (P08684 whole entry): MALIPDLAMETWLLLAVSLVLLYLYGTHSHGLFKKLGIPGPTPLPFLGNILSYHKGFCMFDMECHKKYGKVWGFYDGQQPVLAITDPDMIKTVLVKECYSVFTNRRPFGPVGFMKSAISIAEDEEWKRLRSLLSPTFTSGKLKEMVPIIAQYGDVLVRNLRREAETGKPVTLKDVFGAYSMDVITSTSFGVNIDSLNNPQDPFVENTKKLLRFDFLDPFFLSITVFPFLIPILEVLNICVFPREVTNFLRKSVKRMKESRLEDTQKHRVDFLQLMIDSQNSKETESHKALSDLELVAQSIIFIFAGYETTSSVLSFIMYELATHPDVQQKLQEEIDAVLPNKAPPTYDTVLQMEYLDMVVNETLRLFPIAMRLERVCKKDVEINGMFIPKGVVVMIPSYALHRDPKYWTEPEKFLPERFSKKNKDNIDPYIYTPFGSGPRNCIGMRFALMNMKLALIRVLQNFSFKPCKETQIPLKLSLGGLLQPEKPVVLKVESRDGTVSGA
- testSummary: in vitro
- conditionSummary: recombinant enzyme, % Inhibition of (S)-EDDP production, Supersome
parameterMeasured: inhibition at 15 min, 500 µM
Report the figure along with its unit, number first.

-- ask Given NNC(=O)c1ccncc1 , state its recorded inhibition at 15 min, 500 µM.
-- reply 96.9%
